For each entry below, report its IC50 value.
tested on: Wolbachia pipientis; test: Anti-Wolbachia Cell-Based Screen; assay type: functional; settings: Wolbachia pipientis
One number for each entry, in µM.

Known results for molecules:
{"molecule": "CCOc1ccc2nc(NC(=O)c3c(C(=O)O)cnn3C)sc2c1", "IC50 [µM]": 1.47}
{"molecule": "Cc1cnc(Nc2cccc(C3CCCN3Cc3cn(C)nc3C)n2)s1 (stereo unspecified)", "IC50 [µM]": 5.37}
{"molecule": "Cc1nn(C)c2nc(N3CCCCC3c3cccnc3)sc12 (stereo unspecified)", "IC50 [µM]": 1.24}
{"molecule": "Cc1nn(C)c2nc(N(Cc3nccs3)C3CC3)sc12", "IC50 [µM]": 2.9}

Next molecule, please.
The molecule listed as `COc1ccc(C[C@H]2CN(c3nnc(C)s3)CC[C@H]2OC)cc1.O=C(O)C(F)(F)F` has a reported IC50 of 0.462

###

target: ClpP1P2 (Mycobacterium tuberculosis (strain ATCC 25618 / H37Rv), UniProt P9WPC3+P9WPC5); assay: in vitro assay to detect presence of AMC directly proportional to the activity of ClpP1P2. GHDDI collaboration.
Sequence (P9WPC5 whole entry): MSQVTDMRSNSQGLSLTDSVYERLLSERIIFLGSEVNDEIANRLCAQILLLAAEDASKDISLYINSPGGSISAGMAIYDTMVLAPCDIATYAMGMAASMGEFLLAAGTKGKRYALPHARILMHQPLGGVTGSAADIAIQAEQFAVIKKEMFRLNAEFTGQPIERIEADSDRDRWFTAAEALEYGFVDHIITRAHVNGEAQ
Sequence (P9WPC3 whole entry): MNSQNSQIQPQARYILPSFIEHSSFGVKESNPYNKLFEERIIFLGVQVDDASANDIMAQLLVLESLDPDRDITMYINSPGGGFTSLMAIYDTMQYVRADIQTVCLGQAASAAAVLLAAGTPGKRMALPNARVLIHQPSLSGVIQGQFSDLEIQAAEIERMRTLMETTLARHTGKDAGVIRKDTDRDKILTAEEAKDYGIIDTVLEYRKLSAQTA
value type: IC50

Known results for compounds:
{"compound": "CN(C(=O)CCc1nc(C2CC2)no1)c1cc(C#N)c2ccccc2n1", "value type": "IC50", "observed": "> 100 µM"}
{"compound": "COc1ccc(-c2cc3cccn(CC(=O)N4CCOCC4)c-3n2)cc1", "value type": "IC50", "observed": "> 100 µM"}
{"compound": "O=C(NCCCO)c1cc(-c2cc[nH]n2)n2ccccc12", "value type": "IC50", "observed": "> 100 µM"}
{"compound": "CNC(=O)c1cc2c(nc1NCC(C)C)CCN(c1ccncn1)CC2", "value type": "IC50", "observed": "> 100 µM"}
{"compound": "COCCNc1nc(NCCc2ccccc2)nc2nccnc12", "value type": "IC50", "observed": "> 100 µM"}

Below are some compounds; for each one, tell me its IC50.
1. Cc1cc(C)n(CCNCc2cc(-c3ccccc3)c[nH]c2=O)n1
2. Cc1ccc(S(=O)(=O)N2CCOc3ccccc32)cc1C(N)=O
3. CC(c1cccnc1)N(C)Cc1cc2cc3c(cc2[nH]c1=O)OCO3 (stereo not drawn)
4. O=C(c1c2c(NCC3CC3)ncnc2n2ccccc12)N1CCCC1
5. Cc1ccc2cc(CN(C)Cc3ccncn3)c(=O)[nH]c2c1

Reply:
["> 100 µM", "> 100 µM", "> 100 µM", "> 100 µM", "> 100 µM"]

###

test: microbe, parasite or virus in culture; settings: Mycobacterium tuberculosis, 96 h, read-out: pIC50 (converted)
value type: IC50 (µM)
Give bare numbers, in µM.

Known results for compounds:
{"compound": "O=C(NCCn1cccc1)c1ccc(Cl)cn1", "unit abbreviation": "µM", "IC50": 52.9}
{"compound": "CCOc1cc(C(=O)NCCCOC(C)C)ccn1", "unit abbreviation": "µM", "IC50": 137}

Below are some compounds; for each one, tell me its IC50.
1. COc1coc(CN2CCCC(CCc3ccc(F)c(F)c3)C2)cc1=O (stereo not drawn)
2. CCc1noc(CSc2n[nH]c(-c3ccccn3)n2)n1
3. CN(CC1CCN(c2ccccc2)C1)c1ccc(Cn2ccnc2)cn1 (stereo not drawn)
4. Cc1cc(C)n(-c2nc(NCCCO)c3c4c(sc3n2)CCCC4)n1
5. CCN1CCC(CNCc2c[nH]nc2C(C)(C)C)C1 (stereo not drawn)
6. O=C(c1cccs1)N1CC(Oc2ccccc2Cl)C1

Reply:
14.3
25.1
27.4
41.8
16.4
42.8

Below are some compounds; for each one, tell me its IC50.
1. Cc1nc2c(c(NCc3cc4ccccc4s3)n1)CCNCC2
2. COc1ccc(-c2nc(CN3CC(n4cc(C)cn4)C3)no2)cc1
3. O=C1CC2(CCN(Cc3cccs3)C2)CN1c1cccc(F)c1 (stereo not drawn)

Reply:
[38, 39.7, 18.6]

Below are some compounds; for each one, tell me its IC50.
1. CN(Cc1ccc(N)nc1)c1ncc(Cl)cn1
2. CCCN1C[C@H]2CC[C@@H]1CN(Cc1ccc(-n3cccn3)cc1)C2
3. NC(=O)NC(=O)CCN1CCCc2c(Br)cccc2C1
4. CCC(=O)c1ccc(CN)cc1
5. CN(CCn1cccn1)c1cc(Br)ccn1
6. CC[C@H](N)C(=O)N(C)CCOc1cccc(Cl)c1
7. CN(CC(=O)N1CCOCC1)Cc1cc(Br)cs1

Reply:
1. 237
2. 21.4
3. 96
4. 264
5. 366
6. 263
7. 55.2

Below are some compounds; for each one, tell me its IC50.
1. CC(C)(C)OC(=O)N1CC2(CCC(CN)O2)C1 (stereo not drawn)
2. COCc1ccc(C(=O)NCc2cccc(F)c2)o1

Reply:
[263, 35.8]

Below are some compounds; for each one, tell me its IC50.
1. FC(F)Oc1cccc(C2CNCCO2)c1 (stereo not drawn)
2. COCc1nn(Cc2cccc3cccnc23)c(=O)o1

Reply:
1. 112
2. 51.6

Value source: ChEMBL document CHEMBL3988442
